Could you please report measured %Inh for the items listed next?
Test system: MKNK1
Conditions: concentration: 1 μM, replicates: in singlicate; n = 1;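 further: KINOMEscan kinase panel screen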
State the value with its unit after it.

Past entries and their recorded results:
>  <Cpd Smiles>
O=c1cc(N2CCOCC2)nc2n(Cc3ccccc3F)ccn12

>  <Assay Target>
MKNK1

>  <%Inh>
0%

$$$$
>  <Cpd Smiles>
NS(=O)(=O)c1cccc(N/C=C2\C(=O)Nc3ccc(S(=O)(=O)Cc4c(Cl)cccc4Cl)cc32)c1

>  <Assay Target>
MKNK1

>  <%Inh>
0%

$$$$
>  <Cpd Smiles>
Cc1ccc(NC(=O)Nc2ccc(Cl)c(C(F)(F)F)c2)cc1-c1ccc(C(=O)Nc2ccncc2)cc1

>  <Assay Target>
MKNK1

>  <%Inh>
3%

$$$$
>  <Cpd Smiles>
Nc1cccc(-c2ccc3c(N)n[nH]c3c2)n1

>  <Assay Target>
MKNK1

>  <%Inh>
13%

$$$$
>  <Cpd Smiles>
FC(F)(F)c1ccccc1-c1cc(-c2c[nH]nc2-c2ccccn2)ccn1

>  <Assay Target>
MKNK1

>  <%Inh>
5%

$$$$

Batch lookup, %Inh per entry.
1. COc1ccc2cc(-c3nc(-c4ccccc4C(C)C)[nH]c3-c3ccncc3)ccc2c1
2. CNc1cc(-c2ccc3c(N)n[nH]c3c2)nc(N)n1
3. CNC(=O)c1ccc(C)c(-n2c(C)cc(OCc3ccc(F)cc3F)c(Br)c2=O)c1
4. Cc1ccc(NC(=O)c2ccc(Cl)cc2)cc1-c1ccc(C(=O)Nc2ccncc2)cc1
5. Cc1ccccc1-c1cc(-c2c[nH]nc2-c2ccccn2)ccn1

Completion:
1. 5%
2. 4%
3. 0%
4. 0%
5. 9%

---

Tested on: ACVR1
Conditions: concentration: 1 μM, replicates: in singlicate; n = 1
Could you please report measured %Inh for the items listed next?
Numbers only, in %.

Past entries and their recorded results:
>  <Compound>
CN1c2ccc(-c3ccc(C(N)=O)cc3)cc2-c2[nH]ncc2S1(=O)=O

>  <%Inh / %>
0

$$$$
>  <Compound>
CS(=O)(=O)CCNCc1nc(-c2ccc3ncnc(Nc4ccc5c(cnn5Cc5ccccc5)c4)c3c2)cs1.Cl.Cl

>  <%Inh / %>
1

$$$$

Batch lookup, %Inh per entry.
1. CSc1ccc(-c2nc3n(c2-c2ccncc2)CCC3)cc1
2. CNc1nc(-c2ccc3c(N)n[nH]c3c2)cc(N2C[C@@H](C(=O)Nc3ccccc3)CC[C@H]2C)n1
3. Fc1ccc(-c2nn3cccc(F)c3c2-c2ccncc2)cc1
4. Cn1cncc1C(=O)NC1CCN(c2ccnc(Nc3ccc(F)cc3)n2)C1 (stereo not drawn)

Completion:
1: 5; 2: 0; 3: 11; 4: 24

---

Test system: MELK
Settings: concentration: 1 μM, replicates: in singlicate; n = 1
Could you please report measured %Inh for the items listed next?
Numbers only, in %.

Past entries and their recorded results:
>  <Compound>
CC(C)c1cc(-c2ccc3c(N)n[nH]c3c2)nc(N)n1

>  <%Inh, %>
15

$$$$
>  <Compound>
CCn1c(-c2c(N)noc2C)nc2cnccc21

>  <%Inh, %>
0

$$$$
>  <Compound>
Nc1nccc(-c2c(-c3ccc(F)cc3)ncn2C2CCN(Cc3ccccc3)CC2)n1

>  <%Inh, %>
15

$$$$
>  <Compound>
Cc1ccc(NC(=O)Nc2ccc(Cl)c(C(F)(F)F)c2)cc1-c1ccc(C(=O)Nc2ccncc2)cc1

>  <%Inh, %>
13

$$$$

Batch lookup, %Inh per entry.
1. CCc1ccc(-c2ccc3c(c2)-c2n[nH]cc2S(=O)(=O)N3C)cc1
2. CNc1cc(-c2ccc3c(N)n[nH]c3c2)nc(N)n1
3. COC(=O)c1cccc(NC(=O)NC2CCN(c3ccnc(Nc4ccc(F)cc4)n3)C2)c1 (centres unmarked)
4. COC(=O)C(Cc1ccccc1)NC(=O)NC1CCN(c2ccnc(Nc3ccc(F)cc3)n2)C1 (centres unmarked)
5. CS(=O)(=O)CCNCc1nc(-c2ccc3ncnc(Nc4ccc5c(cnn5Cc5ccccc5)c4)c3c2)cs1.Cl.Cl
6. CCCCc1nn2ncccc2c1-c1ccnc(NC2CC2)n1
7. Cc1c(Cn2c3ccccc3n3c(=O)cc(N4CCOCC4)nc23)cccc1C(F)(F)F

Completion:
9
48
0
40
0
15
66

Batch lookup, %Inh per entry.
1. COc1cccc(CNC(=O)NC2CCN(c3ccnc(Nc4ccc(F)cc4)n3)C2)c1 (centres unmarked)
2. COc1ccc(CSc2nnc(-c3ccc4c(c3)CCO4)o2)cc1
3. Fc1ccc(-c2nn3cccc(F)c3c2-c2ccncc2)cc1
4. Cc1ccccc1-c1cc(-c2c[nH]nc2-c2ccccn2)ccn1
5. CS(=O)(=O)CCNCc1nc(-c2ccc3ncnc(Nc4ccc(OCc5ccccc5)c(Cl)c4)c3c2)cs1.Cl

Completion:
0
0
41
0
0

Batch lookup, %Inh per entry.
1. COc1ccc(Nc2nccc(N3CCC(NC(=O)c4cc5ccccc5s4)C3)n2)cc1 (centres unmarked)
2. Cn1cncc1C(=O)NC1CCN(c2ccnc(Nc3ccc(F)cc3)n2)C1 (centres unmarked)
3. CCn1c(-c2ccccc2)nc2cnccc21
4. COc1ccc(Nc2nccc(-c3ccc(NC(=O)c4cc5cc(F)ccc5[nH]4)cc3)n2)cc1
5. Cc1cnc(N)c(/C=C/c2cncc(C(=O)NCCc3ccc(Cl)cc3Cl)c2)c1.Cl

Completion:
1. 0
2. 0
3. 0
4. 0
5. 2

Batch lookup, %Inh per entry.
1. CC[C@@H]1CO[C@H](C(=O)Nc2ccccc2)CN1c1cc(-c2ccc3c(N)n[nH]c3c2)nc(NC)n1
2. Cl.Cl.Cl.N#Cc1ccc(CCNc2nccc(-c3cccc(CN4CCNCC4)c3)n2)cc1
3. O=c1cc(N2CCOCC2)nc2n(Cc3cccc(Cl)c3Cl)c3ccccc3n12

Completion:
56
38
89

Batch lookup, %Inh per entry.
1. COc1cc2ncnc(Nc3cccc(Br)c3)c2cc1OC.Cl
2. O=C(Nc1n[nH]c2nc(-c3cccs3)c(Br)cc12)C1CC1
3. Cn1cnc2c(N)ncnc21
4. CSc1ccc(-c2nc3n(c2-c2ccncc2)CCC3)cc1
5. Cc1ccc(NC(=O)Nc2ccc(Cl)cc2)cc1-c1ccc(C(=O)Nc2ccncc2)cc1

Completion:
0
15
0
18
0

---

Could you please report measured %Inh for the items listed next?
Tested on: LIMK1
Conditions: concentration: 1 μM, replicates: in singlicate; n = 1
One number for each entry, in %.

Past entries and their recorded results:
>  <Compound>
O=C(Nc1n[nH]c2nc(-c3cccs3)c(Br)cc12)C1CCCC1 [SB-743341]

>  <Assay Target>
LIMK1

>  <Endpoint>
%Inh

>  <Result>
2

$$$$
>  <Compound>
Cc1ccc(NC(=O)Nc2ccccc2F)cc1-c1ccc(C(=O)Nc2ccncc2)cc1 [GSK1398477]

>  <Assay Target>
LIMK1

>  <Endpoint>
%Inh

>  <Result>
36

$$$$
>  <Compound>
CC(=O)c1c(C)c2cnc(Nc3ccc(N4CCNCC4)cn3)nc2n(C2CCCC2)c1=O

>  <Assay Target>
LIMK1

>  <Endpoint>
%Inh

>  <Result>
0

$$$$
>  <Compound>
Nc1nccc(-c2c(-c3ccc(F)cc3)ncn2C2CCN(Cc3ccccc3)CC2)n1 [SB-219980]

>  <Assay Target>
LIMK1

>  <Endpoint>
%Inh

>  <Result>
13

$$$$
>  <Compound>
COc1ccc2cc(-c3nc(-c4ccccc4C(C)C)[nH]c3-c3ccncc3)ccc2c1 [SB-660566]

>  <Assay Target>
LIMK1

>  <Endpoint>
%Inh

>  <Result>
8

$$$$
>  <Compound>
Cc1ccc(NC(=O)c2ccc(Cl)cc2)cc1-c1ccc(C(=O)Nc2ccncc2)cc1 [GSK1398467]

>  <Assay Target>
LIMK1

>  <Endpoint>
%Inh

>  <Result>
0

$$$$
>  <Compound>
O=C(Nc1n[nH]c2cc(-c3ccsc3)ccc12)C1CC1 [SB-732932]

>  <Assay Target>
LIMK1

>  <Endpoint>
%Inh

>  <Result>
0

$$$$
>  <Compound>
CC(=O)c1c(C)c2cnc(Nc3ccn(C)n3)nc2n(C2CCCC2)c1=O

>  <Assay Target>
LIMK1

>  <Endpoint>
%Inh

>  <Result>
23

$$$$

Batch lookup, %Inh per entry.
1. CC(=O)c1cccc(NC(=O)NC2CCN(c3ccnc(Nc4ccc(F)cc4)n3)C2)c1 (centres unmarked) [GSK1379710]
2. COc1cc2ncnc(Nc3cccc(Br)c3)c2cc1OC.Cl [GI230329]
3. Cc1nccc(-c2c(-c3ccc(F)cc3)ncn2CCCN2CCOCC2)n1.Cl [SB-282975]

Completion:
11
0
11

Batch lookup, %Inh per entry.
1. O=c1cc(N2CCOCC2)nc2n(Cc3cccc(Cl)c3Cl)c3ccccc3n12 [GSK2299009]
2. COc1ccc(Nc2nccc(N3CCC(NC(=O)C(C)c4ccc(Cl)cc4)CC3)n2)cc1 (centres unmarked) [GSK1379812]
3. COc1ccc(CSc2nnc(-c3ccc4nccn4c3)o2)cc1C(F)(F)F
4. COc1ccc(CSc2nnc(-c3ccc4ncsc4c3)o2)cc1C(F)(F)F
5. CCCCc1nn2ncccc2c1-c1ccnc(NC2CC2)n1 [GW684374]
6. COc1cccc(NC(=O)Nc2ccc(C)c(-c3ccc(C(=O)Nc4ccncc4)cc3)c2)c1 [GSK1398474]
7. Cc1ccccc1-c1cc(-c2c[nH]nc2-c2ccccn2)ccn1 [GW680061]
8. O=C1NC(=O)C(c2ccc(Cl)cc2)=C1Nc1cccc(Cl)c1 [SB-317651]

Completion:
4
2
0
0
33
11
0
0

Batch lookup, %Inh per entry.
1. Cc1cccc2c(-c3ccncn3)c(-c3ccc(F)cc3)nn12 [GW515532]
2. Cl.Cl.Cl.N#Cc1ccc(CCNc2nccc(-c3cccc(CN4CCNCC4)c3)n2)cc1 [GSK2137462]
3. COC(=O)C(Cc1ccccc1)NC(=O)NC1CCN(c2ccnc(Nc3ccc(F)cc3)n2)C1 (centres unmarked) [GSK1379714]
4. CNc1cc(-c2ccc3c(N)n[nH]c3c2)nc(N)n1 [GSK2224810]
5. Nc1ncnc2occ(-c3ccc4c(c3)CCN4C(=O)Cc3cc(F)ccc3F)c12 [GSK2645446]
6. Cc1c(Cn2c(C)c(C)n3c(=O)cc(N4CCOCC4)nc23)cccc1C(F)(F)F [GSK2328680]

Completion:
[0, 18, 0, 0, 0, 8]

Prompt: Could you share which %Inh value was measured for Cc1ccc(NC(=O)Nc2ccccc2)cc1-c1ccc(C(=O)Nc2ccncc2)cc1 [GSK1398471] ?
Completion: 18
